- Experimental system: UniProt:P09917
- Protocol text: 5-LOX product formation in activated PMNL
- Assay conditions: PMNL, read-out: 5-LOX PMNL residual activity at 3 µM (Table S1)
Mark class 1 only for remaining activity at 3 µM values smaller than 80%; exact matches and larger values are class 0.

## Task Check if remaining activity at 3 µM falls below 80% for C/C(=C\CC/C(C)=C/CC/C(C)=C/CC[C@]1(C)CCc2cc(O)cc(C)c2O1)CO [Compound 10c] .
## Result class 1

## Task Check if remaining activity at 3 µM falls below 80% for `COCOc1cc(C)c2c(c1C=O)CC[C@@](C)(CCC[C@H](C)CCC[C@H](C)CCCC(C)C)O2` .
## Result class 0

## Task Check if remaining activity at 3 µM falls below 80% for Cc1c(C)c2c(c(C)c1O)CC[C@@](C)(CCCC(C)CCCC(C)CCCC(C)CO)O2 (stereo partly drawn) .
## Result class 1

* * *

- Experimental system: 5-LOX (Homo sapiens)
- Sequence (P09917 1-674): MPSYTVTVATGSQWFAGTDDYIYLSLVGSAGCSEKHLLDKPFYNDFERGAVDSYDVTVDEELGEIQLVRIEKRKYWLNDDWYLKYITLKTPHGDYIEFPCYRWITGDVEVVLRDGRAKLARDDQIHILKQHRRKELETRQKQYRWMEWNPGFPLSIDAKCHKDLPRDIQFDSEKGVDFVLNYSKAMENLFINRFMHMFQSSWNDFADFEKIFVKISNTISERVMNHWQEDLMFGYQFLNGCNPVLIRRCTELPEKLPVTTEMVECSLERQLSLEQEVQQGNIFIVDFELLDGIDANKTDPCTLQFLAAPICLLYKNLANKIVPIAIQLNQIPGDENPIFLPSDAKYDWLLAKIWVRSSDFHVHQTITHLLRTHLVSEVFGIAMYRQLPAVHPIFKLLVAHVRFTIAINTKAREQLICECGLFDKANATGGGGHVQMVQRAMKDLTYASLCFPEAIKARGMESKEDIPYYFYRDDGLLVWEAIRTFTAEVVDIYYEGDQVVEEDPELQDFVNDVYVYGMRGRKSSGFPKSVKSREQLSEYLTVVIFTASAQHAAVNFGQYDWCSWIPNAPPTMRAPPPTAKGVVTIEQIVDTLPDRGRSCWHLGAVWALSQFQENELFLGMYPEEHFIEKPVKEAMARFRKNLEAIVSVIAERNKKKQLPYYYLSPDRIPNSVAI
- Protocol text: 5-LOX product formation in activated PMNL
- Assay conditions: read-out: 5-LOX PMNL IC50; 5-LOX product formation in activated PMNL; mean ± SEM
Attribute: pIC50
Please keep in mind that pIC50 is minus log10 of the molar concentration; only the number is needed.

- Compound: "COC(=O)C(C)CCC/C(C)=C/CC/C(C)=C/CC[C@]1(C)CCc2cc(O)cc(C)c2O1 (stereo partly shown)"
  Experimental system: "5-LOX (Homo sapiens)"
  pIC50: 5.94

Next:
## Task Please look up its pIC50: `C/C(=C\CC/C(C)=C/CC[C@]1(C)CCc2cc(OC(=O)CCC(=O)O)cc(C)c2O1)CCC=C(CO)CO`
## Result 6.35

* * *

- Experimental system: 5-LOX (Homo sapiens, UniProt P09917)
- Protocol text: 5-LOX product formation in activated PMNL;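 note: freshly isolated human PMNL in PBS pH 7.4 plus glucose, preincubated 10 min at 37 °C with compound, 5-LOX products (all-trans LTB4 isomers, 5-HETE) quantified by RP-HPLC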
- Assay conditions: read-out: IC50, 5-LOX product formation in PMNL; A23187
Observed property: pIC50
Please keep in mind that pIC50 is minus log10 of the molar concentration; only the number is needed.

## Task Please look up its pIC50: C/C(=C\CC/C(C)=C/CC[C@]1(C)CCc2c(C)c(O)c(C)c(C)c2O1)CCC=C(CO)CO [Compound 27a, α-amplexichromanol]
## Result 7.30
